System: TK-10 renal
measurement_notes: NCI-60 one-dose screen, 48 h
test_context: 10 µM unless noted
Procedure: Growth inhibition of the TK-10 human tumor cell line is measured as a screen for anti-cancer activity. Cells are grown in 96 well plates and exposed to the test compound for 48 hours. Compounds are tested at a single concentration, which is 10^-5 M for most compounds. The reported endpoint is percent growth (GI% or GIPRCNT), where numbers from 0 - 100% represent growth inhibition, and numbers from -100% - 0 represent cell death. For example, a value of 40 represents 60% growth inhibition. […]
The panel holds about 83,000 compounds, 20% with a hit somewhere; the sample as a whole holds those more often. Activity calls are given as the source filed them. How the source made its calls: active means growth percent below 10; inactive means the rest.
In this exercise, the only acceptable responses are active, inactive

compound: Nc1nc(N)c(-c2ccc(Cl)c(Cl)c2)c(/C=C/c2ccc(S(=O)(=O)F)cc2)n1
answer_label: inactive
--
compound: CN=C(NN)NN
answer_label: inactive
--
compound: CNC(=O)Oc1ccccc1
answer_label: inactive

Which outcome was entered for the compound CC(=O)N(C)C1=Nc2ccc(Cl)cc2C(c2ccccc2)=[N+]([O-])C1 in this test?
inactive

Also check [N-]=[N+]=NC(C(=O)O)c1ccccc1 (stereo unspecified)
inactive

Also check S=P(NC1CCCCC1)(N1CC1)N1CC1
inactive

Also check COc1ccc(C2SCC(=O)Nc3c2c(C)nn3-c2nc3ccc(C)cc3s2)cc1O (stereo unspecified)
inactive

Also check C/C(=N/OC(=O)N(C)C)c1ccc(Cl)cc1Cl
inactive

---

System: COLO 205 colon
measurement_notes: NCI-60 one-dose screen, 48 h
test_context: 10 µM
This is part of a sample that, as a whole, favours compounds with a hit. Of some 83,000 tested, about 20% had one in any assay. The source made the active and inactive calls. Rule for the calls: active = growth percent below 10; inactive = the rest.
In this exercise, the only acceptable responses are 1 = active, -1 = inactive

Record excerpt, results attached:
compound: CC1(C)N=C(N)N=C(N)N1c1ccc(OCCCCNC(=O)Nc2cccc(S(=O)(=O)F)c2)c(Cl)c1
answer_label: -1
//
compound: O=C(CF)N(O)c1ccc(/C=C/c2ccccc2)cc1
answer_label: -1
//
compound: O=C(CCCN1CCC2(CC1)C(=O)NCN2c1ccc(F)cc1)c1ccc(F)cc1
answer_label: -1
//
compound: N#CC1=C(N)Oc2cc3c(cc2C1c1cccs1)OCO3 (stereo not drawn)
answer_label: 1
//
compound: Cc1cccc(N(C)c2cccc3c2C(=O)[Se]C3)c1C
answer_label: -1
//
compound: CCOc1ccc(C(O)CN(C)Cc2ccccc2)cc1Cl (stereo not drawn)
answer_label: -1
//
compound: O=c1[nH]c2cc(Cl)ccc2n1C1CCN(CCCC(c2ccc(F)cc2)c2ccc(F)cc2)CC1
answer_label: 1
//
compound: CCCCNCCc1ccccn1
answer_label: -1
//
compound: CNC(C)Cc1ccccc1 (stereo not drawn) (tested in a mixture with another compound)
answer_label: -1
//
compound: CCOC(=O)c1cnc(SCc2ccc(Cl)c(Cl)c2)nc1N1CC1
answer_label: -1

Which outcome was entered for the compound C[CH2][Pb]([CH2]C)([CH2]C)[O]C(=O)COc1ccccc1 in this test?
1

Also check C[CH2][Pb]([CH2]C)([CH2]C)[O]C(=O)c1ccc(N)cc1
-1

Also check c1ccc2nc(OCCN3CC3)ccc2c1
-1

Also check CC(=O)N(C)C1=Nc2ccc(Cl)cc2C(c2ccccc2)=[N+]([O-])C1
-1

Also check OC1(c2ccccc2F)c2ccccc2C2=NCCN21 (stereo not drawn)
-1

Also check Oc1ccc(Br)cc1CN1CCN(Cc2ccc(Cl)cc2)CC1
-1

Also check CCOc1c(Cl)cc(CNC(C)C(O)c2ccccc2)cc1OC (stereo not drawn)
-1
